The reported numbers originate from paper PMC4336329.

# SYSTEM: human ether-à-go-go-related gene (hERG) potassium channel (human, UniProt Q12809);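 also: peak tail current of the secondary pulse compared with the same well before compound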
# Sequence (Q12809 whole entry, looked up): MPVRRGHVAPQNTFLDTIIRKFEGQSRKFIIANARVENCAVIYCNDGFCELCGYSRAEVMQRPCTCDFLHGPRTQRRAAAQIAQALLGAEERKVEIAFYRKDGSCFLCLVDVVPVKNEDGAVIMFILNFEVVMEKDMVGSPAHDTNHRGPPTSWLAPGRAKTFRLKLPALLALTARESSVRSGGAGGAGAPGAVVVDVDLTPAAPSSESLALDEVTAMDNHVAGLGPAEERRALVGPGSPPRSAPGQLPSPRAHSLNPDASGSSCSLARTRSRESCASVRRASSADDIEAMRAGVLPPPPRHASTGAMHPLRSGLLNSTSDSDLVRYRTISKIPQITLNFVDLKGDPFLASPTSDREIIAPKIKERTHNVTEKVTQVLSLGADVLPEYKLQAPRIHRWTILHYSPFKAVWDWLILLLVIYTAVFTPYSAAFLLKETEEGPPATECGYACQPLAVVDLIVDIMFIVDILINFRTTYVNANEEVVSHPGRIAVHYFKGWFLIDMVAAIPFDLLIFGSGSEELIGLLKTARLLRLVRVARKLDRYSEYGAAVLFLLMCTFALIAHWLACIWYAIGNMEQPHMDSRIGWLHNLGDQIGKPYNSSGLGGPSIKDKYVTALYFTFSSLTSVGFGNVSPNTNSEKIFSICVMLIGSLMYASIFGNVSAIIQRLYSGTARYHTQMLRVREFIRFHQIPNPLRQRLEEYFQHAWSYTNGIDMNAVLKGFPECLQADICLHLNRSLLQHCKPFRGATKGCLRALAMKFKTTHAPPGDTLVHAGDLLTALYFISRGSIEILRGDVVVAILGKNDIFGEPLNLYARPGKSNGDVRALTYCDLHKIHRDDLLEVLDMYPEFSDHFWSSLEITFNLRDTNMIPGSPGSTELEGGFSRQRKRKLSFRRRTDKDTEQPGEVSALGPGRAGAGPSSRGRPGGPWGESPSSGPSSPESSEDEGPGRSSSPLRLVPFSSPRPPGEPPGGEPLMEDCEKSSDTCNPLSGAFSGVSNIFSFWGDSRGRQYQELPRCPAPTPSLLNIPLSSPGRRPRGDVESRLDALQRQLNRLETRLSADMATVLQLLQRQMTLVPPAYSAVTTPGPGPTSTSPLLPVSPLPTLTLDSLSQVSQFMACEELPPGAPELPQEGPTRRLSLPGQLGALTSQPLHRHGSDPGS
# PROCEDURE_DETAILS: primary screen, population patch clamp on CHO cells stably expressing hERG; higher = less effect of the substance
The campaign covered roughly 310,000 compounds. About 14,000 (4.5%) showed an effect of 50% or more. The effect is printed as a negative number. Many of the other results were omitted from the sample, so strong results are more common in it than they were.
ATTRIBUTE_MEASURED: hERG current change (%, negative = inhibition) at 10uM (%)
Write the number in % without appending the unit.

[
  {
    "COMPOUND": "O=C(CCCCCN1C(=O)[C@@H]2Cc3ccccc3CN2C1=O)N[C@@H](Cc1ccc(O)cc1)C(=O)O",
    "TEST_RESULT": 1.02
  }
]

hERG current change (%, negative = inhibition) at 10uM for CCN(CC(=O)Nc1ccc(NC(C)=O)cc1)C(=O)/C=C/c1ccc2c(c1)OCO2 is 0.823

hERG current change (%, negative = inhibition) at 10uM for CCNC(=O)NC1(C(=O)N2CCC(Cc3ccccc3)CC2)CCCCC1 is 21.7

hERG current change (%, negative = inhibition) at 10uM for O=C(NC(=S)Nc1cccnc1Cl)c1ccc(Cl)cc1 is 15.5

---

# SYSTEM: human ether-à-go-go-related gene (hERG) potassium channel (human, UniProt Q12809);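 also: peak tail current of the secondary pulse compared with the same well before compound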
# PROCEDURE_DETAILS: primary screen, population patch clamp on CHO cells stably expressing hERG; higher = less effect of the substance
Hit rate of the full screen: of about 310,000 compounds, about 14,000 (4.5%) showed an effect of 50% or more. Effects have a minus sign here. This is one part of a sample in which strong results are shown more often than they occur.
ATTRIBUTE_MEASURED: hERG current change (%, negative = inhibition) at 10uM (%)
Write the number in % without appending the unit.

Answered cases to consult:
[
  {
    "MOLECULE": "Cc1ccc(CN2CCN(/N=C\\C=C\\c3ccccc3)CC2)cc1",
    "MEASURE_UNIT": "%",
    "TEST_RESULT": -72.2
  },
  {
    "MOLECULE": "C/C(=N\\N1CCN(Cc2ccc(Cl)cc2)CC1)c1ccc([N+](=O)[O-])cc1",
    "MEASURE_UNIT": "%",
    "TEST_RESULT": -72.6
  },
  {
    "MOLECULE": "O=C(CSc1nncn1-c1ccccc1)Nc1ccc(N2CCOCC2)cc1",
    "MEASURE_UNIT": "%",
    "TEST_RESULT": 3
  },
  {
    "MOLECULE": "Cc1ccc(CN(C(=O)c2cc3ccccc3oc2=O)C2CCS(=O)(=O)C2)cc1 (stereo not shown)",
    "MEASURE_UNIT": "%",
    "TEST_RESULT": -34
  },
  {
    "MOLECULE": "C/C(=N\\N1CCN(Cc2ccc(Cl)cc2)CC1)c1ccc(F)cc1",
    "MEASURE_UNIT": "%",
    "TEST_RESULT": -51.6
  }
]

hERG current change (%, negative = inhibition) at 10uM for C/C(=N\N1CCN(Cc2ccccc2Cl)CC1)c1ccc(F)cc1 is 2.05

---

Quick reference: hERG current change (%, negative = inhibition) at 10uM of the listed items.
# SYSTEM: human ether-à-go-go-related gene (hERG) potassium channel (human, UniProt Q12809);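 also: peak tail current of the secondary pulse compared with the same well before compound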
# PROCEDURE_DETAILS: primary screen, population patch clamp on CHO cells stably expressing hERG; higher = less effect of the substance
About 14,000 (4.5%) of roughly 310,000 compounds showed an effect of 50% or more. The effect is printed as a negative number. The sample holds strong results, similar compounds and a random draw of the others, so the mix is not that of the screen.
Write the number in % without appending the unit.

[
  {
    "MOLECULE": "CCS(=O)(=O)N1CCN(c2cnn(-c3ccccc3)c(=O)c2Cl)CC1",
    "TEST_RESULT": -29
  }
]

hERG current change (%, negative = inhibition) at 10uM for CCOC(=O)c1[nH]c(C)c(C(=O)N2CCc3ccccc32)c1C is -12.6

hERG current change (%, negative = inhibition) at 10uM for Cc1nn(Cc2ccccc2Cl)c2sc(C(=O)OC3CCCC3=O)cc12 (stereo not shown) is -4.19

hERG current change (%, negative = inhibition) at 10uM for N/C(=N\OC(=O)c1ccccc1)c1ccccn1 is 12.9

hERG current change (%, negative = inhibition) at 10uM for CCOc1ccc(Nc2ccc([N+](=O)[O-])c3nonc23)cc1 is -53.9

hERG current change (%, negative = inhibition) at 10uM for Cl.O=C(c1ccco1)N1CCN(C(c2ccccc2Cl)c2nnnn2CC2CCCO2)CC1 (stereo not shown) is -12.3

hERG current change (%, negative = inhibition) at 10uM for CC(C)c1ccc(C(=O)N2CCN(c3cnn(C)c(=O)c3Cl)CC2)cc1 is -64.4
